Hello, the source for this data is patent US20020169175A1, in case you need it.

Consider the following molecules and their measured Cmax readings.
Assay: Single dose oral pharmacokinetic studies in male Wistar rats
Assay type: in vivo, rat
Settings: fasted, suspension in 0.25% sodium CMC
All answers are understood in µg/mL, so give the number only.

| molecule | unitLabel | Cmax |
| --- | --- | --- |
| CCCc1nn(C)c2c(=O)n(CCOc3ccc(CC(OCC)C(=O)[O-])cc3)c(CC)nc12.CCCc1nn(C)c2c(=O)n(CCOc3ccc(CC(OCC)C(=O)[O-])cc3)c(CC)nc12.[Mg+2] (single isomer, unassigned; (-)) | µg/mL | 19.15 |
| CCO[C@@H](Cc1ccc(OCCn2c(CC)nc3ccccc3c2=O)cc1)C(=O)O [Example 10] | µg/mL | 54.21 |
| CCO[C@@H](Cc1ccc(OCCn2c(CC)nc3ccccc3c2=O)cc1)C(=O)O [Example 7] | µg/mL | 40.25 |

For the next question, use this molecule.
Returns the measured Cmax for the input molecule. Input: "CCCc1nn(C)c2c(=O)n(CCOc3ccc(C[C@H](OCC)C(=O)O)cc3)c(CC)nc12"
24.22
